Listed here: items and their measured MIC.
# Test system: Pichia kudriavzevii
# measurement.protocol: Antifungal activity against Candida krusei ATCC 6258 by macro-broth dilution assay
# Format: functional
Report as a plain number; the unit µg/mL is understood.

Field: example entries. Status: answers known.
Find MIC (Pichia kudriavzevii) for the entry Clc1ccc(COC(Cn2cnc3ccccc32)c2ccccc2)cc1 (stereo unspecified) 25

Find MIC (Pichia kudriavzevii) for the entry Clc1cccc(Cl)c1COC(Cn1cnc2ccccc21)c1ccccc1 (stereo unspecified) 12.5

Find MIC (Pichia kudriavzevii) for the entry c1ccc(COC(Cn2cnc3ccccc32)c2ccccc2)cc1 (stereo unspecified) 25

Find MIC (Pichia kudriavzevii) for the entry FC(F)(F)c1ccc(COC(Cn2cnc3ccccc32)c2ccccc2)cc1 (stereo unspecified) 12.5

Find MIC (Pichia kudriavzevii) for the entry Fc1ccc(COC(Cn2cnc3ccccc32)c2ccccc2)cc1 (stereo unspecified) 25

Lab note: next compound to report on.
Find MIC (Pichia kudriavzevii) for the entry OC(Cn1cncn1)(Cn1cncn1)c1ccc(F)cc1F 25

* * *

# Tested on: Pichia kudriavzevii
# measurement.protocol: Antifungal activity against Candida krusei ATCC 6258 by macro-broth dilution assay
# Format: functional
Listed here: items and their measured MIC.
Report as a plain number; the unit µg/mL is understood.

Field: example entries. Status: answers known.
Requested field: MIC. Item: Clc1ccc(COC(Cn2cnc3ccccc32)c2ccccc2)cc1Cl (centres undefined) 25

Requested field: MIC. Item: Brc1ccc(COC(Cn2cnc3ccccc32)c2ccccc2)cc1 (centres undefined) 25

Requested field: MIC. Item: Clc1ccc(COC(Cn2cnc3ccccc32)c2ccccc2)c(Cl)c1 (centres undefined) 25

Lab note: next compound to report on.
Requested field: MIC. Item: Clc1ccc(COC(Cn2ccnc2)c2ccc(Cl)cc2Cl)c(Cl)c1 (centres undefined) [MICONAZOLE] 0.78
